# Tested on: TTR
# experimental_protocol: TTR editing in primary cyno hepatocytes treated with LNP formulated Spy Cas9 mRNA (SEQ ID NO: 2) and sgRNAs (Tables 17, 18)
# Type: cell-based, cynomolgus monkey
# recorded_conditions: Table 17, LNP formulated Spy Cas9 mRNA (SEQ ID NO: 2) and sgRNA, 12.5 ng mRNA, 3.9 nM sgRNA, 72 hours
Strand notation (5' to 3'): a small letter for the sugar, then the base; units joined by * are phosphorothioate-linked, units joined directly phosphodiester-linked; [ ] holds rarer units or linkages, { } end groups; capitals alone tell only the bases. m = 2'-O-methyl; r = 2'-OH (RNA)
Please assign Not met whenever 12.5 ng mRNA, 3.9 nM sgRNA Avg % Edit is at or above 8%, and Met whenever it is below.

| molecule | answer_label |
| --- | --- |
| G000501: TTR sgRNA modified sequence, Human, SEQ ID No. 108; guide sequence of CR005300 (nucleic acid) guide: mU*mC*mA*rCrArGrArArArCrArCrUrCrArCrCrGrUrArGrUrUrUrUrArGrAmGmCmUmAmGmAmAmAmUmAmGmCrArArGrUrUrArArArArUrArArGrGrCrUrArGrUrCrCrGrUrUrArUrCrAmAmCmUmUmGmAmAmAmAmAmGmUmGmGmCmAmCmCmGmAmGmUmCmGmGmUmGmCmU*mU*mU*mU | Met |
| G000492: TTR sgRNA modified sequence, Human, SEQ ID No. 99; guide sequence of CR003342 (nucleic acid) guide: mC*mU*mU*rCrUrCrUrArCrArCrCrCrArGrGrGrCrArCrGrUrUrUrUrArGrAmGmCmUmAmGmAmAmAmUmAmGmCrArArGrUrUrArArArArUrArArGrGrCrUrArGrUrCrCrGrUrUrArUrCrAmAmCmUmUmGmAmAmAmAmAmGmUmGmGmCmAmCmCmGmAmGmUmCmGmGmUmGmCmU*mU*mU*mU | Met |
| G000571: TTR sgRNA modified sequence, Human, SEQ ID No. 112; guide sequence of CR005301 (nucleic acid) guide: mG*mU*mC*rArCrArGrArArArCrArCrUrCrArCrCrGrUrGrUrUrUrUrArGrAmGmCmUmAmGmAmAmAmUmAmGmCrArArGrUrUrArArArArUrArArGrGrCrUrArGrUrCrCrGrUrUrArUrCrAmAmCmUmUmGmAmAmAmAmAmGmUmGmGmCmAmCmCmGmAmGmUmCmGmGmUmGmCmU*mU*mU*mU | Not met |
| G000480: TTR sgRNA modified sequence, Human, SEQ ID No. 87; guide sequence of CR003353 (nucleic acid) guide: mA*mA*mA*rGrGrCrUrGrCrUrGrArUrGrArCrArCrCrUrGrUrUrUrUrArGrAmGmCmUmAmGmAmAmAmUmAmGmCrArArGrUrUrArArArArUrArArGrGrCrUrArGrUrCrCrGrUrUrArUrCrAmAmCmUmUmGmAmAmAmAmAmGmUmGmGmCmAmCmCmGmAmGmUmCmGmGmUmGmCmU*mU*mU*mU | Met |
| G000567: TTR sgRNA modified sequence, Human, SEQ ID No. 109; guide sequence of CR003352 (nucleic acid) guide: mG*mA*mA*rArGrGrCrUrGrCrUrGrArUrGrArCrArCrCrGrUrUrUrUrArGrAmGmCmUmAmGmAmAmAmUmAmGmCrArArGrUrUrArArArArUrArArGrGrCrUrArGrUrCrCrGrUrUrArUrCrAmAmCmUmUmGmAmAmAmAmAmGmUmGmGmCmAmCmCmGmAmGmUmCmGmGmUmGmCmU*mU*mU*mU | Met |
| G000500: TTR sgRNA modified sequence, Human, SEQ ID No. 107; guide sequence of CR003337 (nucleic acid) guide: mC*mC*mA*rGrUrCrCrArGrCrArArGrGrCrArGrArGrGrGrUrUrUrUrArGrAmGmCmUmAmGmAmAmAmUmAmGmCrArArGrUrUrArArArArUrArArGrGrCrUrArGrUrCrCrGrUrUrArUrCrAmAmCmUmUmGmAmAmAmAmAmGmUmGmGmCmAmCmCmGmAmGmUmCmGmGmUmGmCmU*mU*mU*mU | Not met |
| G000570: TTR sgRNA modified sequence, Human, SEQ ID No. 111; guide sequence of CR003347 (nucleic acid) guide: mC*mA*mU*rUrGrArUrGrGrCrArGrGrArCrUrGrCrCrUrGrUrUrUrUrArGrAmGmCmUmAmGmAmAmAmUmAmGmCrArArGrUrUrArArArArUrArArGrGrCrUrArGrUrCrCrGrUrUrArUrCrAmAmCmUmUmGmAmAmAmAmAmGmUmGmGmCmAmCmCmGmAmGmUmCmGmGmUmGmCmU*mU*mU*mU | Not met |
| G000568: TTR sgRNA modified sequence, Human, SEQ ID No. 110; guide sequence of CR003391 (nucleic acid) guide: mG*mG*mC*rUrGrUrCrGrUrCrArCrCrArArUrCrCrCrArGrUrUrUrUrArGrAmGmCmUmAmGmAmAmAmUmAmGmCrArArGrUrUrArArArArUrArArGrGrCrUrArGrUrCrCrGrUrUrArUrCrAmAmCmUmUmGmAmAmAmAmAmGmUmGmGmCmAmCmCmGmAmGmUmCmGmGmUmGmCmU*mU*mU*mU | Not met |
| G000484: TTR sgRNA modified sequence, Human, SEQ ID No. 91; guide sequence of CR003367 (nucleic acid) guide: mA*mG*mA*rCrArCrCrArArArUrCrUrUrArCrUrGrGrArGrUrUrUrUrArGrAmGmCmUmAmGmAmAmAmUmAmGmCrArArGrUrUrArArArArUrArArGrGrCrUrArGrUrCrCrGrUrUrArUrCrAmAmCmUmUmGmAmAmAmAmAmGmUmGmGmCmAmCmCmGmAmGmUmCmGmGmUmGmCmU*mU*mU*mU | Met |
| G000572: TTR sgRNA modified sequence, Human, SEQ ID No. 113; guide sequence of CR003385 (nucleic acid) guide: mC*mC*mC*rCrUrArCrUrCrCrUrArUrUrCrCrArCrCrArGrUrUrUrUrArGrAmGmCmUmAmGmAmAmAmUmAmGmCrArArGrUrUrArArArArUrArArGrGrCrUrArGrUrCrCrGrUrUrArUrCrAmAmCmUmUmGmAmAmAmAmAmGmUmGmGmCmAmCmCmGmAmGmUmCmGmGmUmGmCmU*mU*mU*mU | Not met |
| G000493: TTR sgRNA modified sequence, Human, SEQ ID No. 100; guide sequence of CR003368 (nucleic acid) guide: mA*mA*mG*rUrGrCrCrUrUrCrCrArGrUrArArGrArUrUrGrUrUrUrUrArGrAmGmCmUmAmGmAmAmAmUmAmGmCrArArGrUrUrArArArArUrArArGrGrCrUrArGrUrCrCrGrUrUrArUrCrAmAmCmUmUmGmAmAmAmAmAmGmUmGmGmCmAmCmCmGmAmGmUmCmGmGmUmGmCmU*mU*mU*mU | Met |
